assay: Inhibition of beta-adrenergic receptor in isoproterenol-stimulated guinea pig atrial muscle; assay type: tissue-based, Cavia porcellus, Cardiac atrium
Hi! Could you tag entries with IC50 below 0.1 µg/mL as 1 (yes), and those at or above as 0 (no)? Much appreciated.

[
  {
    "Compound": "CC(C)NCC(O)COc1cccc2c1CCC(=O)C2 (stereo not drawn)",
    "Label": "1 (yes)"
  },
  {
    "Compound": "CC(C)(C)NCC(O)COc1cccc2c1CC[C@@H](O)[C@@H]2O (relative stereo)",
    "Label": "1 (yes)"
  },
  {
    "Compound": "CC(C)NCC(O)COc1cc(O)c(O)c2c1CCCC2 (stereo not drawn)",
    "Label": "0 (no)"
  },
  {
    "Compound": "OC(CNCCc1ccccc1)COc1cccc2c1C[C@H](O)[C@H](O)C2 (stereo partly drawn)",
    "Label": "0 (no)"
  },
  {
    "Compound": "CC(C)NCC(O)COc1ccc(O)c2c1CCCC2 (stereo not drawn)",
    "Label": "1 (yes)"
  },
  {
    "Compound": "CC(C)(C)NCC(O)COc1ccc2c(c1)C[C@@H](O)[C@H](O)C2 (relative stereo)",
    "Label": "0 (no)"
  },
  {
    "Compound": "CC(C)NCC(O)COc1cccc2c1CC=CC2 (stereo not drawn)",
    "Label": "1 (yes)"
  },
  {
    "Compound": "COc1ccc(CCNCC(O)COc2ccc(O)c3c2CCCC3)cc1OC (stereo not drawn)",
    "Label": "1 (yes)"
  }
]
